The origin of these recorded values is patent US8445510B2.

# Tested on: MKN45 cells
# assayMethodText: MKN45 cell proliferation assay (CellTiter-Glo)
# Format: cell-based
# assayConditions: Homo sapiens, MKN-45, 72 h; MKN45 cell line; 3 days incubation; at least duplicate experiments; read-out: Prolif. IC50
pIC50: −log10 of the molar value.
valueKind: pIC50

Some solved cases for reference:
- moleculeSmiles: "[2H]c1[nH]c2ncc(-c3cnn([C@H]4CC[C@H](O)CC4)c3C)cc2c1[C@H](C)c1c(OC(F)F)ccc(F)c1Cl"
  experimentalSystem: "MKN45 cells"
  result: "≥ 7.30"
- moleculeSmiles: "C[C@H](c1c(OC(F)F)ccc(F)c1Cl)c1c[nH]c2ncc(-c3cnn([C@H]4CC[C@H](O)CC4)c3Cl)cc12"
  experimentalSystem: "MKN45 cells"
  result: "≥ 7.30"
- moleculeSmiles: "COc1ccc(F)c(Cl)c1[C@@H](C)c1c[nH]c2ncc(-c3cn(C)nc3CN)cc12"
  experimentalSystem: "MKN45 cells"
  result: "6.70 to 7.30"

Quick one: give me pIC50 for each item below, same order please.
1. CNC(=O)[C@H]1CC[C@H](n2ncc(-c3cnc4[nH]cc([C@H](C)c5c(OC)ccc(F)c5Cl)c4c3)c2C)CC1
2. COc1ccc(F)c(Cl)c1[C@@H](C)c1c[nH]c2ncc(-c3c(C)nn(C)c3CO)cc12

["≥ 7.30", "6.00 to 6.70"]

State the recorded pIC50 for every item in the following list.
1. Cc1c(-c2cnc3[nH]cc([C@@H](CF)c4c(Cl)ccc(F)c4Cl)c3c2)cnn1[C@H]1CC[C@H](O)CC1
2. CCc1c(-c2cnc3[nH]cc([C@H](C)c4c(OC(F)F)ccc(F)c4Cl)c3c2)cnn1[C@H]1CC[C@H](O)CC1

["< 6.00", "≥ 7.30"]

---

# experimentalSystem: RON (Homo sapiens, UniProt Q04912)
# Sequence (Q04912 913-1400): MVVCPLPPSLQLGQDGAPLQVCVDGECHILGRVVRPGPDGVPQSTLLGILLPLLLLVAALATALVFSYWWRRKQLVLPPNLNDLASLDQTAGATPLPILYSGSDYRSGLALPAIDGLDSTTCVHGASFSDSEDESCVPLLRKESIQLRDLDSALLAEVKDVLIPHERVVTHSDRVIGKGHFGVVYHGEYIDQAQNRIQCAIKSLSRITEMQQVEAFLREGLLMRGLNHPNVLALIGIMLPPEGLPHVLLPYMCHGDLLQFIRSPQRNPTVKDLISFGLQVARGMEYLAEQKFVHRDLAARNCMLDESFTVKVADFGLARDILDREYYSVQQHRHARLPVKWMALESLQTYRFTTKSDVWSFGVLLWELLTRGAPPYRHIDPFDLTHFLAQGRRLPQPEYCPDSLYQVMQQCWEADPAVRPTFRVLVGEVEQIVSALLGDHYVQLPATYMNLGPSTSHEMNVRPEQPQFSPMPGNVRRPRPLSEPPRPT
# assayMethodText: sfRON cell mechanistic assay (HeLa), phosphorylated RON ELISA
# assayConditions: HeLa cells transfected with sfRON; inhibition of phosphorylated RON; four hours incubation; at least duplicate experiments; read-out: sfRON mech IC50
pIC50: −log10 of the molar value.
Please respond with reported pIC50 for every item in the list.

- moleculeSmiles: "[2H]C([2H])([2H])c1c(-c2cnc3[nH]cc([C@H](C)c4c(OC(F)F)ccc(F)c4Cl)c3c2)cnn1[C@H]1CC[C@H](O)CC1"
  experimentalSystem: "RON (Homo sapiens, UniProt Q04912)"
  pIC50: "6.00 to 6.70"
- moleculeSmiles: "COc1ccc(F)c(Cl)c1[C@@H](C)c1c[nH]c2ncc(-c3c(C)nn([C@@H]4C[C@@H](O)[C@@H](O)C4)c3C)cc12"
  experimentalSystem: "RON (Homo sapiens, UniProt Q04912)"
  pIC50: "6.00 to 6.70"
- moleculeSmiles: "COc1ccc(F)c(Cl)c1[C@@H](C)c1c[nH]c2ncc(-c3cnn([C@H]4CC[C@H](N(C)C)CC4)c3C)cc12"
  experimentalSystem: "RON (Homo sapiens, UniProt Q04912)"
  pIC50: "6.00 to 6.70"
- moleculeSmiles: "COc1ccc(F)c(Cl)c1[C@@H](C)c1c[nH]c2ncc(-c3c(CO)nn(C)c3C)cc12"
  experimentalSystem: "RON (Homo sapiens, UniProt Q04912)"
  pIC50: "< 6.00"
- moleculeSmiles: "Cc1c(-c2cnc3[nH]cc([C@H](C)c4c(OC(F)F)ccc(F)c4Cl)c3c2)cnn1[C@H]1CC[C@H](O)CC1"
  experimentalSystem: "RON (Homo sapiens, UniProt Q04912)"
  pIC50: "≥ 6.70"

Provide the reported pIC50 of each entry below, same order.
1. COc1ccc(F)c(Cl)c1[C@@H](C)c1c[nH]c2ncc(-c3cncn3C)cc12
2. [2H]C([2H])([2H])Oc1ccc(F)c(Cl)c1[C@@H](C)c1c[nH]c2ncc(-c3cnn([C@H]4CC[C@H](O)CC4)c3C)cc12

< 6.00
6.00 to 6.70

---

# experimentalSystem: Aurora B (Homo sapiens, UniProt Q96GD4)
# Construct: HT-29 cells grown in complete growth media
# Sequence (Q96GD4 whole entry): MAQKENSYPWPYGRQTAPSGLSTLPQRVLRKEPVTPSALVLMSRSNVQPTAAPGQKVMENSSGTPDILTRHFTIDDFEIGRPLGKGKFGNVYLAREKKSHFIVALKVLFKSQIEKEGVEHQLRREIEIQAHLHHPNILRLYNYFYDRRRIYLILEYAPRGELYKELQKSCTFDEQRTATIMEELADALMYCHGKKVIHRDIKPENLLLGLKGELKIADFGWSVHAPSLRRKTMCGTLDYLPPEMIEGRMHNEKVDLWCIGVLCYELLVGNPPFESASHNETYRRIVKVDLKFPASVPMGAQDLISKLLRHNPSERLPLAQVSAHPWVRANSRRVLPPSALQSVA
# assayMethodText: Aurora B cell mechanistic assay (HT-29), phospho-Histone H3 (Ser10) ELISA
# assayConditions: HT-29 cell line; inhibition of phospho-Histone H3 (Ser10); at least duplicate experiments (italicized if single experiment); read-out: Aurora B mech IC50
pIC50: −log10 of the molar value.
Answer each item with its documented pIC50.

Would you please look over these solved cases?
- moleculeSmiles: "COc1ccc(F)c(Cl)c1[C@@H](C)c1c[nH]c2ncc(-c3cn(C)nc3C(F)(F)F)cc12"
  pIC50: "< 6.00"
- moleculeSmiles: "COc1ccc(F)c(Cl)c1[C@@H](C)c1c[nH]c2ncc(-c3cnn(C)c3Cl)cc12"
  pIC50: "< 6.00"
- moleculeSmiles: "CNC(=O)[C@H]1CC[C@H](n2cc(-c3cnc4[nH]cc([C@H](C)c5c(OC)ccc(F)c5Cl)c4c3)c(C)n2)CC1"
  pIC50: "6.70 to 7.30"
- moleculeSmiles: "COc1ccc(F)c(Cl)c1[C@@H](C)c1c[nH]c2ncc(-c3cn(CC(C)(C)O)nc3C(F)(F)F)cc12"
  pIC50: "< 6.00"
- moleculeSmiles: "COc1ccc(F)c(Cl)c1[C@@H](C)c1c[nH]c2ncc(-c3cn(C[C@H](O)CO)nc3C)cc12"
  pIC50: "6.00 to 6.70"

The following compounds each have a reported value; give each one's pIC50.
1. COc1cc(OC)c(Cl)c([C@@H](C)c2c[nH]c3ncc(-c4cnn([C@H]5CC[C@H](O)CC5)c4C)cc23)c1Cl
2. COc1ccc(F)c(Cl)c1[C@@H](C)c1c[nH]c2ncc(-c3c(C)nn(C)c3C(N)=O)cc12

< 6.00
< 6.00

Look up pIC50 for the entries below, preserving their order.
1. COc1ccc(F)c(Cl)c1[C@@H](C)c1c[nH]c2ncc(-c3cn(C[C@@H](O)CO)nc3C(F)(F)F)cc12
2. COc1ccc(F)c(Cl)c1[C@@H](C)c1c[nH]c2ncc(-c3cnn([C@H]4CC[C@@H](N(C)C)CC4)c3C)cc12
3. CCc1c(-c2cnc3[nH]cc([C@H](C)c4c(OC(F)F)ccc(F)c4Cl)c3c2)cnn1CC(C)(C)O
4. CNC(=O)[C@H]1CC[C@H](n2ncc(-c3cnc4[nH]cc([C@H](C)c5c(OC)ccc(F)c5Cl)c4c3)c2C)CC1

1. < 6.00
2. 6.00 to 6.70
3. 6.00 to 6.70
4. 6.00 to 6.70

Give a short answer stating reported pIC50 for `COc1ccc(F)c(Cl)c1[C@@H](C)c1c[nH]c2ncc(-c3cnn([C@H]4CC[C@H](C(N)=O)CC4)c3C)cc12` .
6.00 to 6.70

---

# experimentalSystem: UniProt:Q04912
# assayMethodText: sfRON cell mechanistic assay (HeLa), phosphorylated RON ELISA
# assayConditions: HeLa cells transfected with sfRON; inhibition of phosphorylated RON; four hours incubation; at least duplicate experiments; read-out: sfRON mech IC50
Could you please report measured IC50 for the items listed next?

Would you please look over these solved cases?
- moleculeSmiles: "CCc1c(-c2cnc3[nH]cc([C@H](C)c4c(OC)ccc(F)c4Cl)c3c2)cnn1CC(C)(C)O"
  experimentalSystem: "UniProt:Q04912"
  IC50: "200 to 1000 nM"
- moleculeSmiles: "CCOc1ccc(F)c(Cl)c1[C@@H](C)c1c[nH]c2ncc(-c3cnn([C@H]4CC[C@H](O)CC4)c3C)cc12"
  experimentalSystem: "UniProt:Q04912"
  IC50: "≤ 200 nM"
- moleculeSmiles: "Cc1c(-c2cnc3[nH]cc([C@H](C)c4c(OC(F)F)ccc(F)c4Cl)c3c2)cnn1C1CCC(=O)CC1"
  experimentalSystem: "UniProt:Q04912"
  IC50: "200 to 1000 nM"

# input for lookup
Consider the compound `CCc1nn([C@H]2CC[C@H](O)CC2)cc1-c1cnc2[nH]cc([C@H](C)c3c(OC(F)F)ccc(F)c3Cl)c2c1` . State its measured IC50.
≤ 200 nM

---

# System: MKN45 cells
# assayMethodText: MKN45 cell proliferation assay (CellTiter-Glo)
# Type: cell-based
# assayConditions: Homo sapiens, MKN-45, 72 h; MKN45 cell line; 3 days incubation; at least duplicate experiments; read-out: Prolif. IC50
# Experimental: The effect of inhibitors on the proliferation of MKN45 cells was determined using the following protocol. […] Plates were shaken on a platform for 10 minutes prior to reading luminescence for 0.1 seconds. The signal of the control wells was taken as 100% growth and growth inhibition was expressed as percent of control. IC50 values were determined from the percent of control data using a standard four-parameter model. […]
valueKind: IC50

Past entries and their recorded results:
- compound: "Cc1c(-c2cnc3[nH]cc([C@H](C)c4c(OC(F)F)ccc(F)c4Cl)c3c2)cnn1[C@H]1CC[C@H](O)CC1"
  experimentalSystem: "MKN45 cells"
  IC50: "≤ 50 nM"
- compound: "COc1ccc(F)c(Cl)c1[C@@H](C)c1c[nH]c2ncc(-c3c[nH]nc3C)cc12"
  experimentalSystem: "MKN45 cells"
  IC50: "≤ 50 nM"
- compound: "COc1ccc(F)c(Cl)c1[C@@H](C)c1c[nH]c2ncc(-c3c(C)nn(C)c3Cl)cc12"
  experimentalSystem: "MKN45 cells"
  IC50: "200 to 1000 nM"
- compound: "Cc1c(-c2cnc3[nH]cc([C@H](C)c4c(OC(C)C)ccc(F)c4Cl)c3c2)cnn1[C@H]1CC[C@H](O)CC1"
  experimentalSystem: "MKN45 cells"
  IC50: "≤ 50 nM"
- compound: "COc1ccc(F)c(Cl)c1[C@@H](C)c1c[nH]c2ncc(-c3cn(C)nc3C)cc12"
  experimentalSystem: "MKN45 cells"
  IC50: "50 to 200 nM"
- compound: "COc1ccc(F)c(Cl)c1[C@H](CF)c1c[nH]c2ncc(-c3cnn([C@H]4CC[C@H](O)CC4)c3C)cc12"
  experimentalSystem: "MKN45 cells"
  IC50: "200 to 1000 nM"

Look up IC50 for the entries below, preserving their order.
1. COc1ccc(F)c(Cl)c1[C@@H](C)c1c[nH]c2ncc(-c3cnn([C@H]4CC[C@H](C(N)=O)CC4)c3C)cc12
2. [2H]C([2H])([2H])[C@H](c1c(OC(F)F)ccc(F)c1Cl)c1c[nH]c2ncc(-c3cnn([C@H]4CC[C@H](O)CC4)c3C)cc12
3. Cc1c(-c2cnc3[nH]cc(C(C#N)c4c(Cl)ccc(F)c4Cl)c3c2)cnn1[C@H]1CC[C@H](O)CC1 (stereo partly shown)
4. COc1ccc(F)c(Cl)c1[C@@H](C)c1c[nH]c2ncc(-c3cnn(C)c3N)cc12

1: ≤ 50 nM; 2: ≤ 50 nM; 3: 50 to 200 nM; 4: ≤ 50 nM
